target: purified recombinant human insulin receptor-exon 11 (human); experiment: assay (I): SPA competition, displacement of A14 Tyr[125I]-human insulin from recombinant human insulin receptor; reference human insulin
parameter: insulin receptor binding relative to that of human insulin (%)

substance	meas value
B(1-29)-B22K(N(eps)hexadecandioyl-g-L-Glu-amide)-B29H-TGLGSGR-A(1-21)-A18Q-A21G Human insulin (from UniProt P01308 25-53; P01308 90-110) (ligand)	105
B(1-29)-B22K((eps)myristoyl)-B29A-VGLSSGQ-A(1-21)-A18Q Human Insulin (from UniProt P01308 25-53; P01308 90-110) (ligand)	46
B(1-29)-B22K(N(eps)hexadecandioyl-gGlu)-B29A-VGLSSGQ-A(1-21)-A18Q Human Insulin (from UniProt P01308 25-53; P01308 90-110) (ligand)	64
B(1-29)-B22K(N(eps)octadecandioyl)-B29A-VGLSSGQ-A(1-21)-A18Q Human Insulin (from UniProt P01308 25-53; P01308 90-110) (ligand)	16
B(1-29)-B22K((eps)hexadecandioyl-gGlu)-B29H-TGLGSGR-A(1-21)-A18Q-A21G Human insulin (from UniProt P01308 25-53; P01308 90-110) (ligand)	46

###

molecular target: human insulin receptor (Homo sapiens, UniProt P06213); assay: Insulin receptor binding, SPA antibody capture assay (assay (I)); details: recombinant human insulin receptor - exon 11, A14 Tyr[125I]-human insulin tracer, human insulin = 100%
Sequence (P06213 28-746 isoform P06213-2 limits assumed): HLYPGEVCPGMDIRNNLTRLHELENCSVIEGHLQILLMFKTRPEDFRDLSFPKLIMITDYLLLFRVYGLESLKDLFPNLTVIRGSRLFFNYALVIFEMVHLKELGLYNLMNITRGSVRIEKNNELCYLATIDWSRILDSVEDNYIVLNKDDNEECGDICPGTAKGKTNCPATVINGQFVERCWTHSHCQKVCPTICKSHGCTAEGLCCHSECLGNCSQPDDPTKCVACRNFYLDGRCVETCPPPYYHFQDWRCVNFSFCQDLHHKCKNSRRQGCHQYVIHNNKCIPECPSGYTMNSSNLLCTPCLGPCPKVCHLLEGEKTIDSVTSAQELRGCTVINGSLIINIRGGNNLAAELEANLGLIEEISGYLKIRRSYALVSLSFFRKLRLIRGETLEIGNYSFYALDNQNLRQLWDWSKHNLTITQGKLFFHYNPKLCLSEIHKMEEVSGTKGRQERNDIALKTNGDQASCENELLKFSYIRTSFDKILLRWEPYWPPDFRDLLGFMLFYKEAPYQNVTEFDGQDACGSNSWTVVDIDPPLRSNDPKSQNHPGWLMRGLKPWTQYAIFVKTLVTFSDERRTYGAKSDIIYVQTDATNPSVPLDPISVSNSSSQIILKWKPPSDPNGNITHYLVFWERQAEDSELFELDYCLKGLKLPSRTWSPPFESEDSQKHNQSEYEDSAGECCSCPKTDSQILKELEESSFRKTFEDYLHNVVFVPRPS
Sequence (P06213 763-1382 partner limits assumed): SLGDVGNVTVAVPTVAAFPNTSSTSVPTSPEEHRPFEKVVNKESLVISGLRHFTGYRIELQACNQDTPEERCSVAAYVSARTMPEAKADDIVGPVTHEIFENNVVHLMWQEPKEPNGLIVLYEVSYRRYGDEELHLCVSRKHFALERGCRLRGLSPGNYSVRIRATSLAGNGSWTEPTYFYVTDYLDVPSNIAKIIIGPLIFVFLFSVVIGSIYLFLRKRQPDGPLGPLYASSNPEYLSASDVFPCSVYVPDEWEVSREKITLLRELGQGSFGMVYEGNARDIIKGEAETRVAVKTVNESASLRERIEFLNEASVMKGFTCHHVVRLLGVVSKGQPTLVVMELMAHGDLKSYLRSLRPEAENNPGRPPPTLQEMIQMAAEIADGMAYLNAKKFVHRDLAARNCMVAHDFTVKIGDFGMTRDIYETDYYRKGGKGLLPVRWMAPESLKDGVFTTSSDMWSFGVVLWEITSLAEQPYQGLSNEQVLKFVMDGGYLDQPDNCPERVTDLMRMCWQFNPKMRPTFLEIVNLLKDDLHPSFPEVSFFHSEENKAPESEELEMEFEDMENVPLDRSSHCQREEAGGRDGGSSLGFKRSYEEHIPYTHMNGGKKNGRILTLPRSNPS
# reported insulin receptor binding relative to that of human insulin; entries follow
parameter: insulin receptor binding relative to that of human insulin (%)

> print(dat)
                                  substance                        measurement.target  measurement.unit  meas.value
1  B(1-29)-B22K((eps)myristoyl)-B29A-VGLSSGQ-A(1-21)-A18Q Human Insulin [Example 1]  human insulin receptor (Homo sapiens, UniProt P06213)                 %          46
2  B(1-29)-B22K((eps)hexadecandioyl-gGlu)-B29H-TGLGSGR-A(1-21)-A18Q-A21G Human insulin [Example 4]  human insulin receptor (Homo sapiens, UniProt P06213)                 %          46
3  B(1-29)-B22K(N(eps)heptadecandioyl-g-L-Glu)-B29H-TGLGSGR-A(1-21)-A18Q-A21G Human insulin [Example 8]  human insulin receptor (Homo sapiens, UniProt P06213)                 %          53

###

molecular target: human insulin receptor (Homo sapiens, UniProt P06213); experiment: Insulin receptor binding, SPA antibody capture assay (assay (I)); settings: recombinant human insulin receptor - exon 11, A14 Tyr[125I]-human insulin tracer, human insulin = 100%
# reported insulin receptor binding relative to that of human insulin; entries follow
parameter: insulin receptor binding relative to that of human insulin (%)

> print(dat)
                                  substance  meas.value
1  B(1-29)-B22K(N(eps)hexadecandioyl-gGlu)-B29A-VGLSSGQ-A(1-21)-A18Q Human Insulin [Example 3]          64
2  B(1-29)-B22K(N(eps)heptadecandioyl)-B29H-TGLGSGR-A(1-21)-A18Q-A21G Human insulin [Example 7]         119
3  B(1-29)-B22K(N(eps)hexadecandioyl-g-L-Glu-amide)-B29H-TGLGSGR-A(1-21)-A18Q-A21G Human insulin [Example 6]         105
4  B(1-29)-B22K((eps)hexadecandioyl-gGlu)-B29Q-TGLGSGR-A(1-21)-A18Q-A21G Human insulin [Example 5]         154
5  B(1-29)-B22K(N(eps)octadecandioyl)-B29A-VGLSSGQ-A(1-21)-A18Q Human Insulin [Example 2]          16
